Just for reference, PubChem BioAssay (NCATS) is where these values come from.

assay: NFAT Signaling Pathway (AID 444); conditions: Jurkat NFAT-bla M1, carbachol, beta-lactamase ratio, 5 h; at 7.69 µM (top of the series) unless noted;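 also: carbachol stimulus at about its EC50 of 1 µM final; % is scaled to controls: 0 for no effect and ±100 for the full control effect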
Inconclusive results are not listed. Activity calls are given as the source filed them. Calls follow the shape of the dose curve; as a rule, active = well fitted curve in either direction with a large enough effect (not every such curve was filed as active); inconclusive = small, poorly fitted or top-dose-only effect, or another doubt; inactive = flat fitted curve, though single readings scatter.
Please provide measured activity change, negative = inhibition for the entries that follow.

| Mol smiles | Measured quantity | Data value |
| --- | --- | --- |
| COc1cccc(-c2nccc(NC3CCNCC3)n2)c1 | activity change, negative = inhibition | 8.54% (inactive) |
| COc1cccc(-c2nccc(NCc3ccccc3OC)n2)c1 | activity change, negative = inhibition | 11.8% (inactive) |

Note: attention shifts to another entry.
Quick one: activity change, negative = inhibition for "CN[C@@H](CC(C)C)C(=O)N[C@@H]1C(=O)N[C@H](CC(N)=O)C(=O)N[C@@H]2C(=O)N[C@H]3C(=O)N[C@H](C(=O)N[C@H](C(=O)O)c4cc(O)cc(O)c4-c4cc3ccc4O)[C@H](O)c3ccc(c(Cl)c3)Oc3cc2cc(c3O[C@H]2O[C@@H](CO)[C@@H](O)[C@@H](O)[C@@H]2O[C@@H]2C[C@](C)(N)[C@H](O)[C@H](C)O2)Oc2ccc(cc2Cl)[C@@H]1O" ? -5.38% [at 17.2 µM] (inactive)
